Data provenance: patent US20060167030A1

MEASURED TARGET: Tie2 (Homo sapiens, UniProt Q02763)
Construct: fused on or other part: GST in the kinase assays; none in the CHO cell assay
Sequence (Q02763 770-1124 limits assumed): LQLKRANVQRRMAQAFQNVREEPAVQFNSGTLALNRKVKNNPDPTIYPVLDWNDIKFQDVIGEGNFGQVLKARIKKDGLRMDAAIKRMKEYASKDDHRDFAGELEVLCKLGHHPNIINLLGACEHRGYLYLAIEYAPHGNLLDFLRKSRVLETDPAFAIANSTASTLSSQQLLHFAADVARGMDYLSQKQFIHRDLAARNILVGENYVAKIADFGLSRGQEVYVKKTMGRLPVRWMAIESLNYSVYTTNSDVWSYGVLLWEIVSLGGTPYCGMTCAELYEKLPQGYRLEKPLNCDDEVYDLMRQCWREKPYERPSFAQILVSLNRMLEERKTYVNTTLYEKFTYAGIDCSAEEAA
ASSAY METHOD TEXT: Tie2 kinase assay or Tie2 autophosphorylation ELISA test (not stated which)
EXPERIMENTAL CONDITIONS: either assay; not specified per compound; read-out: IC50 of Tie2 inhibition, either in the Tie2 kinase assay or in the Tie2 autophosphorylation ELISA test
The following compounds are listed with their measured IC50 values.

Below: 6 compounds and their reported IC50.
[
  {
    "STRUCTURE STRING": "O=S1(=O)NCCCNc2nc(ncc2-c2ccc(O)cc2)Nc2cccc1c2",
    "IC50": "≤ 2 µM"
  },
  {
    "STRUCTURE STRING": "COc1ccc(-c2cnc3nc2NCCCNS(=O)(=O)c2cccc(c2)N3)cc1",
    "IC50": "≤ 2 µM"
  },
  {
    "STRUCTURE STRING": "COC(=O)c1ccc(-c2cnc3nc2NCCCNS(=O)(=O)c2cccc(c2)N3)cc1",
    "IC50": "≤ 2 µM"
  },
  {
    "STRUCTURE STRING": "CC(=O)c1ccc(-c2cnc3nc2NCCCNS(=O)(=O)c2cccc(c2)N3)cc1",
    "IC50": "≤ 2 µM"
  },
  {
    "STRUCTURE STRING": "O=S1(=O)NCCCNc2nc(ncc2/C=C\\c2ccccc2)Nc2cccc1c2",
    "IC50": "≤ 2 µM"
  },
  {
    "STRUCTURE STRING": "CS(=O)(=O)c1ccc(-c2cnc3nc2NCCCNS(=O)(=O)c2cccc(c2)N3)cc1",
    "IC50": "≤ 2 µM"
  }
]

Per the record, `O=S1(=O)NCCCNc2nc(ncc2-c2ccccc2)Nc2cccc1c2` has IC50 of ≤ 2 µM

Per the record, `C=C(c1ccccc1)c1cnc2nc1NCCCNS(=O)(=O)c1cccc(c1)N2` has IC50 of ≤ 2 µM
